pIC50 values by entry
tested.target: FPR1 (Homo sapiens)
Sequence (P21462 1-350): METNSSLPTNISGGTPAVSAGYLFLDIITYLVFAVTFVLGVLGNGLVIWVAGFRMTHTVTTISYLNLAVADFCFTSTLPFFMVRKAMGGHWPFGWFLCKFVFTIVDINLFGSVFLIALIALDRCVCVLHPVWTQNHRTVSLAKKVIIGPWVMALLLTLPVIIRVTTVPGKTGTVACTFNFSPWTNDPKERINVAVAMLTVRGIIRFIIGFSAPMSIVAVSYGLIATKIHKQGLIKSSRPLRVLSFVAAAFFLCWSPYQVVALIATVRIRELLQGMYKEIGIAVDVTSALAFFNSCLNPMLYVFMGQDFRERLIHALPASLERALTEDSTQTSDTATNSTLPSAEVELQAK
test.summary: FPR1 β-arrestin recruitment assay (PathHunter CHO-FPR1, antagonistic mode)
condition.summary: CHO FPR1 β-arrestin cells; antagonistic assay vs reference agonist fMLF at its EC80; 60 min preincubation
Where a SMILES comes first, the peptide text is derived from it. Bridges are numbered along the chain shown (N, C = ends). [ ]: non-standard residue; d: D form. Dab = NCC[C@H](N)C(=O)O
# pIC50: negative log10 of molar concentration; output just the value

| compound | tested.target | pIC50 |
| --- | --- | --- |
| CC[C@H](C)[C@@H]1NC(=O)[C@H]([C@@H](C)O)NC(=O)[C@H](Cc2c[nH]c3ccccc23)NC(=O)[C@H]2CCCN2C(=O)CNC(=O)[C@H](Cc2c[nH]c3ccccc23)NC(=O)[C@@H]2CSSC[C@H](NC1=O)C(=O)N[C@@H](Cc1ccc(O)cc1)C(=O)N[C@@H](CCC(=O)O)C(=O)N[C@@H](CCCCN)C(=O)N1CCC[C@@H]1C(=O)N1CCC[C@H]1C(=O)N[C@@H](Cc1ccc(O)cc1)C(=O)N[C@@H](Cc1c[nH]cn1)C(=O)N[C@@H](CCCCN)C(=O)N2 [compound 51] (cyclo(YHKCWG[dP]WTICYEK[dP]P); disulfide 4-11) | FPR1 (Homo sapiens) | 7.27 |
| CC[C@H](C)[C@@H]1NC(=O)[C@H]([C@@H](C)O)NC(=O)[C@H](Cc2c[nH]c3ccccc23)NC(=O)[C@H]2CCCN2C(=O)CNC(=O)[C@H](Cc2c[nH]cn2)NC(=O)[C@@H]2CSSC[C@H](NC1=O)C(=O)N[C@@H](Cc1ccc(O)cc1)C(=O)N[C@@H](CCC(=O)O)C(=O)N[C@@H](CCCCN)C(=O)N[C@H](CCCCN)C(=O)N[C@@H](CCC(=O)O)C(=O)N[C@@H](Cc1ccc(O)cc1)C(=O)N[C@@H](Cc1c[nH]cn1)C(=O)N[C@@H](CCCCN)C(=O)N2 [compound 5] (cyclo(YHKCHG[dP]WTICYEK[dK]E); disulfide 4-11) | FPR1 (Homo sapiens) | 6.91 |
| CC[C@H](C)[C@@H]1NC(=O)[C@H]([C@@H](C)O)NC(=O)[C@H](Cc2c[nH]c3ccccc23)NC(=O)[C@H]2CCCN2C(=O)CNC(=O)[C@H](Cc2c[nH]cn2)NC(=O)[C@@H]2CSSC[C@H](NC1=O)C(=O)N[C@@H](Cc1ccc(O)cc1)C(=O)N[C@@H](CCC(=O)O)C(=O)N[C@@H](CCN)C(=O)N1CCC[C@@H]1C(=O)N1CCC[C@H]1C(=O)N[C@@H](Cc1ccc(O)cc1)C(=O)N[C@@H](Cc1c[nH]cn1)C(=O)N[C@@H](CCCCN)C(=O)N2 [compound 56] (cyclo(YHKCHG[dP]WTICYE[Dab][dP]P); disulfide 4-11) | FPR1 (Homo sapiens) | 7.09 |
| CC[C@H](C)[C@@H]1NC(=O)[C@H]([C@@H](C)O)NC(=O)[C@H](Cc2c[nH]c3ccccc23)NC(=O)[C@H]2CCCN2C(=O)CNC(=O)[C@H](Cc2c[nH]cn2)NC(=O)[C@@H]2CSSC[C@H](NC1=O)C(=O)N[C@@H](Cc1ccc(O)cc1)C(=O)N[C@@H](CCC(N)=O)C(=O)N[C@@H](CCCCN)C(=O)N1CCC[C@@H]1C(=O)N1CCC[C@H]1C(=O)N[C@@H](Cc1ccc(O)cc1)C(=O)N[C@@H](Cc1c[nH]cn1)C(=O)N[C@@H](Cc1c[nH]c3ccccc13)C(=O)N2 [Ex. 11] (cyclo(YHWCHG[dP]WTICYQK[dP]P); disulfide 4-11) | FPR1 (Homo sapiens) | 6.75 |
| CC[C@H](C)[C@@H]1NC(=O)[C@H]([C@@H](C)O)NC(=O)[C@H](Cc2c[nH]c3ccccc23)NC(=O)[C@H]2CCCN2C(=O)CNC(=O)[C@H](Cc2c[nH]c3ccccc23)NC(=O)[C@@H]2CSSC[C@H](NC1=O)C(=O)N[C@@H](Cc1ccc(O)cc1)C(=O)N[C@@H](CCC(N)=O)C(=O)N[C@@H](CCCCN)C(=O)N1CCC[C@@H]1C(=O)N1CCC[C@H]1C(=O)N[C@@H](Cc1ccc(O)cc1)C(=O)N[C@@H](Cc1c[nH]cn1)C(=O)N[C@@H](C)C(=O)N2 [Ex. 40] (cyclo(YHACWG[dP]WTICYQK[dP]P); disulfide 4-11) | FPR1 (Homo sapiens) | 7.02 |

Request the reported pIC50 associated with CC[C@H](C)[C@@H]1NC(=O)[C@H]([C@@H](C)O)NC(=O)[C@H](Cc2c[nH]c3ccccc23)NC(=O)[C@H]2CCCN2C(=O)CNC(=O)[C@H](Cc2c[nH]cn2)NC(=O)[C@@H]2CSSC[C@H](NC1=O)C(=O)N[C@@H](Cc1ccc(O)cc1)C(=O)N[C@@H](CCC(=O)O)C(=O)N[C@@H](CCCCN)C(=O)N[C@H](C)C(=O)N[C@@H](CCC(=O)O)C(=O)N[C@@H](Cc1ccc(O)cc1)C(=O)N[C@@H](Cc1c[nH]cn1)C(=O)N[C@@H](CCCCN)C(=O)N2 [compound 6] (cyclo(YHKCHG[dP]WTICYEK[dA]E); disulfide 4-11)
6.91

Request the reported pIC50 associated with CC[C@H](C)[C@@H]1NC(=O)[C@H]([C@@H](C)O)NC(=O)[C@H](Cc2c[nH]c3ccccc23)NC(=O)[C@H]2CCCN2C(=O)CNC(=O)[C@H](Cc2c[nH]cn2)NC(=O)[C@@H]2CSSC[C@H](NC1=O)C(=O)N[C@@H](Cc1ccc(O)cc1)C(=O)N[C@@H](CCC(=O)O)C(=O)N[C@@H](CCCCN)C(=O)N1CCC[C@@H]1C(=O)N[C@@H](CCN)C(=O)N[C@@H](Cc1ccc(O)cc1)C(=O)N[C@@H](Cc1c[nH]cn1)C(=O)N[C@@H](CCCCN)C(=O)N2 [Ex. 89] (cyclo(YHKCHG[dP]WTICYEK[dP][Dab]); disulfide 4-11)
6.72

Request the reported pIC50 associated with CC[C@H](C)[C@@H]1NC(=O)[C@H]([C@@H](C)O)NC(=O)[C@H](Cc2c[nH]c3ccccc23)NC(=O)[C@H]2CCCN2C(=O)CNC(=O)[C@H](Cc2c[nH]c3ccccc23)NC(=O)[C@@H]2CSSC[C@H](NC1=O)C(=O)N[C@@H](Cc1ccc(O)cc1)C(=O)N[C@@H](CCC(=O)O)C(=O)N[C@@H](CCCCN)C(=O)N1CCC[C@@H]1C(=O)N[C@@H](CCCCN)C(=O)N[C@@H](Cc1ccc(O)cc1)C(=O)N[C@@H](Cc1c[nH]cn1)C(=O)N[C@@H](CCCCN)C(=O)N2 [compound 87] (cyclo(YHKCWG[dP]WTICYEK[dP]K); disulfide 4-11)
7.27

Request the reported pIC50 associated with CC[C@H](C)[C@@H]1NC(=O)[C@H]([C@@H](C)O)NC(=O)[C@H](Cc2c[nH]c3ccccc23)NC(=O)[C@H]2CCCN2C(=O)CNC(=O)[C@H](Cc2c[nH]c3ccccc23)NC(=O)[C@@H]2CSSC[C@H](NC1=O)C(=O)N[C@@H]([C@@H](C)O)C(=O)N[C@@H](CCC(N)=O)C(=O)N[C@@H](CCCCN)C(=O)N1CCC[C@@H]1C(=O)N1CCC[C@H]1C(=O)N[C@@H](Cc1ccc(O)cc1)C(=O)N[C@@H](Cc1c[nH]cn1)C(=O)N[C@@H](C)C(=O)N2 [compound 34] (cyclo(YHACWG[dP]WTICTQK[dP]P); disulfide 4-11)
6.16
